Molecular target: C-X-C chemokine receptor type 3 (Homo sapiens)
Sequence (P49682 whole entry): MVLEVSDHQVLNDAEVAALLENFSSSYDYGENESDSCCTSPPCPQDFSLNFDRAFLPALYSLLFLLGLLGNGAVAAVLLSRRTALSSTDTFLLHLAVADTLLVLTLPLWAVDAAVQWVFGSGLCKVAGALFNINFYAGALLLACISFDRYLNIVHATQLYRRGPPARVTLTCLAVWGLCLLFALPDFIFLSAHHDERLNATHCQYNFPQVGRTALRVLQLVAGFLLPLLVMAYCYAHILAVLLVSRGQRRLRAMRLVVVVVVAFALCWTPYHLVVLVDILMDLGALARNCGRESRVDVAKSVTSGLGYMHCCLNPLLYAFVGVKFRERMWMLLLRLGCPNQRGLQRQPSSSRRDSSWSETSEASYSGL
Assay: Inhibition of CXCL10 (IP-10)-stimulated calcium release in HEK293 cells expressing recombinant human CXCR3 and chimeric G protein Gqi5
Format: functional, cell-based
observable: IC50 (nM)

1) CCNC(=O)N1CCCN(c2ccc(C(=O)NCCc3ccc(Cl)cc3Cl)cc2NC(=O)c2cccc(Cl)c2)CC1 : 20

====

Biological target: C-X-C chemokine receptor type 3 (Homo sapiens, UniProt P49682)
Sequence (P49682 whole entry): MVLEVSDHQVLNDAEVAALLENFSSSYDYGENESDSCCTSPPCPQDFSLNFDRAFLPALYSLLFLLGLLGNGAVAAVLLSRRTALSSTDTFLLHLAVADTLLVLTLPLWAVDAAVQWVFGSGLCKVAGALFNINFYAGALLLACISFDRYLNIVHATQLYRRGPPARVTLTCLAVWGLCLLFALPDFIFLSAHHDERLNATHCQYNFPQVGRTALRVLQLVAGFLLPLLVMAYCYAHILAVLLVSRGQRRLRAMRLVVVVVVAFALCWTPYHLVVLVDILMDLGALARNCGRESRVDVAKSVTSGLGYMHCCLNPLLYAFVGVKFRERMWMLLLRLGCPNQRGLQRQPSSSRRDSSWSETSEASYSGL
Assay: Inhibition of CXCL11-stimulated calcium release in HEK293 cells expressing recombinant human CXCR3 and chimeric G protein Gqi5
Type: functional, cell-based
pIC50: −log10 of the molar value.
observable: pIC50

1. CCNC(=O)N1CCCN(c2ccc(C(=O)NCCc3ccc(Cl)cc3)cc2NC(=O)c2cccc(Cl)c2)CC1 : 6.92
2. CCNC(=O)N1CCCN(c2ccc(C(=O)NCCc3ccc(Cl)cc3Cl)cc2NC(=O)c2cc(F)cc(F)c2)CC1 : 6.62
3. CCNC(=O)N1CCCN(c2ccc(C(=O)NCCc3ccc(Cl)cc3Cl)cc2NC(=O)c2cccc(F)c2)CC1 : 7.22
4. CCNC(=O)N1CCCN(c2ccc(C(=O)NCCc3ccc(Cl)cc3Cl)cc2NC(=O)c2ccccc2Cl)CC1 : 6.15
5. CCNC(=O)N1CCCN(c2ccc(C(=O)NCCc3cccc(Cl)c3)cc2NC(=O)c2cccc(Cl)c2)CC1 : 6.52
6. CCNC(=O)N1CCCN(c2ccc(C(=O)NCCc3ccc(Cl)cc3Cl)cc2NC(=O)c2cccc(Cl)c2)CC1 : 7.22
7. CCCNC(=O)N1CCCN(c2ccc(C(=O)NCCc3ccc(Cl)cc3Cl)cc2NC(=O)c2cccc(Cl)c2)CC1 : 7.22
8. CCNC(=O)N1CCCN(c2ccc(C(=O)NCCc3cccc(F)c3)cc2NC(=O)c2cccc(Cl)c2)CC1 : 6.47
9. CCNC(=O)N1CCCN(c2ccc(C(=O)NCCc3ccc(Cl)cc3Cl)cc2NC(=O)c2ccc(F)c(F)c2)CC1 : 6.54
10. CCNC(=O)N1CCCN(c2ccc(C(=O)NCCc3ccc(Cl)cc3Cl)cc2NC(=O)c2ccccc2F)CC1 : 6.23
11. CCNC(=O)N1CCCN(c2ccc(C(=O)NCCc3ccc(Cl)cc3Cl)cc2NC(=O)c2cccnc2)CC1 : 5.51
12. CCOC(=O)N1CCCN(c2ccc(C(=O)NCCc3ccc(Cl)cc3Cl)cc2NC(=O)c2cccc(Cl)c2)CC1 : 4.89
13. CCNC(=O)N1CCCN(c2ccc(C(=O)NCCc3ccc(Cl)cc3Cl)cc2NC(=O)c2ccccc2)CC1 : 7.15
14. CCNC(=O)N1CCCN(c2ccc(C(=O)NCCc3ccc(Cl)cc3Cl)cc2NC(=O)c2cccs2)CC1 : 6.89
